Listed next: entries and their corresponding gcPBM binding intensity (ln).
System: PfSIP2 AP2 domain 1 (GST-tagged)
protocol-description: gcPBM binding intensity (ln(normalized median fluorescence intensity)); higher = stronger DNA binding
The full ranking holds about 25,000 sequences; the median of “ln(normalized median fluorescence intensity)” is about 7.1, and the highest 2% start at about 10. For the sample, the highest values were picked, then their nearest neighbours and some sequences at random.
Please give the numeric answer without any surrounding text.

Study these solved cases before continuing.
entry-sequence	tgt	readout-value
GCAGCAGCATTTTCAGTGCATTATTATATTGTTCAT [GTGCAC_site9926]	PfSIP2 AP2 domain 1 (GST-tagged)	7.98
TTGATTATAATTAGTACACACAAAATACATGCGGGG [CACACA_site2277]	PfSIP2 AP2 domain 1 (GST-tagged)	7.82
AACATTTTAAATTATACACACATTTTGAATATATAT [CACACA_site3470]	PfSIP2 AP2 domain 1 (GST-tagged)	7.2
TTAAAAATGAACATATGTACATATATATATATATAT [XGTACX_site7923]	PfSIP2 AP2 domain 1 (GST-tagged)	9.39
ATGTAGAAGTAATGCACACATATGTATTTATATATA [CACACA_site5391]	PfSIP2 AP2 domain 1 (GST-tagged)	7.26
CTAATCGTGCACAACTGTACATTTGTCAAGGGCAAT [XGTACX_site8662]	PfSIP2 AP2 domain 1 (GST-tagged)	10.4
AAAAAGAACACAAAAAGTACAAAAATTATAATGATA [XGTACX_site2676]	PfSIP2 AP2 domain 1 (GST-tagged)	6.98
AAATATTTGTGTGGTTGTACTATAATGATAAAAATA [XGTACX_site7703]	PfSIP2 AP2 domain 1 (GST-tagged)	7.27
TAATATATAACGTGCACACACACATTTACGTATGAA [CACACA_site1832]	PfSIP2 AP2 domain 1 (GST-tagged)	9.88
ATCGGTAATATTAACACACACATTTATTTATATTTA [CACACA_site6638]	PfSIP2 AP2 domain 1 (GST-tagged)	7.01

Entry AAAATTTCAATAAATACACACATATATATATATATT [CACACA_site1685] needs its gcPBM binding intensity (ln) filled in; supply it.
7.07

Find the measured gcPBM binding intensity (ln) of AACTGTACAATTTTTGTGCACAATAATTATTAATAT [GTGCAC_site9462] and report it.
8.74

Identify measured gcPBM binding intensity (ln) corresponding to TTTTTTTTTTTTTTGGTGCAGTTCACATATTATATA [GTGCAC_site9996]
9.48

For the sequence TTTTCAAAAATATATACACACATGCATATTACGGTG [CACACA_site775] , give its reported gcPBM binding intensity (ln).
6.98

In one line, give reported gcPBM binding intensity (ln) of the entry TTATTTTCTTTCTATGCACACGCACGTATTTGCCCA [CACACA_site9104] .
7.91

* * *

Each item that follows carries a reported gcPBM binding intensity (ln).
System: PfSIP2 AP2 domain 1 (GST-tagged)
protocol-description: gcPBM binding intensity (ln(normalized median fluorescence intensity)); higher = stronger DNA binding
Whole data set: some 25,000 sequences, median “ln(normalized median fluorescence intensity)” near 7.1, cut for the highest 2% near 10. The sample holds the highest values, similar sequences and a random draw of the others, so the mix is not that of the screen.
Kindly provide the number alone.

entry-sequence	assay-endpoint	readout-value
TAAAGAAATAAATACATACACACATATATATATATA [CACACA_site3363]	gcPBM binding intensity (ln)	9.69
TGTCGGCTTAGATTAGTGCACTGAAAAATGAAGTAT [GTGCAC_site9919]	gcPBM binding intensity (ln)	10.5
ATATATTTTTTTTTTTGTACGTATATTTATATAATT [XGTACX_site8719]	gcPBM binding intensity (ln)	7.1
AATAGAAAAAAATAAGTGCATTTTGGTATTCATCAT [GTGCAC_site9614]	gcPBM binding intensity (ln)	8.14
GCATTATTATATATTTGTACATATTTTTTTTTAAAA [XGTACX_site5436]	gcPBM binding intensity (ln)	7.3
TTTATTTTTAACAGTGCACACATAACTTAATTATAT [CACACA_site8681]	gcPBM binding intensity (ln)	10.5

State, in one line, measured gcPBM binding intensity (ln) of AAAAAAAATTATGAAGTGCATTAGTGAATTTGATTG
9.16

Tell me measured gcPBM binding intensity (ln) for TTTTTTAAATATTAAAAATGGGATCTTATAACATAT [GTGCAC_negctrl_site666] please.
6.91

Return gcPBM binding intensity (ln) for the following sequence: AGAAATAAGAAATATACACACATATATATATATATA [CACACA_site2808]
9.79
